B1: Caulobacter ParB omega fusion; a variant is named by its letters at X, in order, B8GW30 (parent)
chain: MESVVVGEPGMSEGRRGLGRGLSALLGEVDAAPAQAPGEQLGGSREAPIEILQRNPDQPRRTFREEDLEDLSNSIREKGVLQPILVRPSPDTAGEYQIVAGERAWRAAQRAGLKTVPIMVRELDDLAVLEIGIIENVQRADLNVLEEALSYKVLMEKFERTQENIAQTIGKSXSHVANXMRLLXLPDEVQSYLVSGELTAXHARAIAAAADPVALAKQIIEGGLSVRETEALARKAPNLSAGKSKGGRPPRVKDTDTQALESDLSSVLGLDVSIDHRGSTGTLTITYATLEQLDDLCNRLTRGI

variants of: B1; test: one-hybrid fitness for binding parS DNA (scaled: cognate 1, non-cognate 0); higher = stronger binding; details: with parS DNA site
Over roughly 81,000 sequences, “one-hybrid fitness for binding parS DNA” has its median near -0.17; the highest 2% begin near 0.51. Many of the other results were omitted from the sample, so the highest values are more common in it than they were.
outcome.measure: one-hybrid fitness for binding parS DNA

The examples below pair each entry with its known result.
# variant.notation, one-hybrid fitness for binding parS DNA
data = [
    ("RREK", "≤ 0.2"),
    ("RCHD", "≤ 0.2"),
    ("RPGA", "≤ 0.2"),
    ("RCGA", 0.653),
    ("RFHH", "≤ 0.2"),
    ("RWGA", 0.386),
]

GET /value?item= "RQGH" &field=one-hybrid fitness for binding parS DNA returns 0.249

GET /value?item= "DFGA" &field=one-hybrid fitness for binding parS DNA returns ≤ 0.2
